experiment: Pharmacokinetic analysis, plasma half-life of fusion protein and free peptide
Assay type: in vivo
test_context: read-out: plasma t½
Positions of bridges follow the written chain, without caps; N, C: chain ends. Residues, ends and D or L forms follow the SMILES beside them.
endpoint_name: half-life

[[record]]
compound = "CC(C)C[C@@H]1NC(=O)[C@H](C)NC(=O)CNC(=O)[C@H](C)NC(=O)[C@@H](N)CSSC[C@@H](C(=O)N[C@@H](Cc2ccc(O)cc2)C(=O)O)NC1=O [free synthetic peptide, CAGALCY] (H-CAGALCY-OH; disulfide 1-6)"
endpoint_name = "half-life"
assay_value = "1 to 2 min"


The reported numbers originate from patent US20040110681A1.
